test: Inhibition of Bacillus subtilis DNA polymerase 3C assessed as incorporation of [3H]TMP into activated calf thymus DNA incubated with dATP, dCTP and [3H]TTP in absence of dGTP
Each item that follows carries a reported Ki.

| structure | quantity-unit | Ki |
| --- | --- | --- |
| CCc1cc(Nc2cc3ncn(CCCCOC)c3c(=O)[nH]2)ccc1C | nM | 1500 |
| COCCCCn1cnc2nc(NCc3ccc(Cl)c(Cl)c3)[nH]c(=O)c21 | nM | 190 |
| O=c1[nH]c(NCc2ccc(Cl)c(Cl)c2)cc2c1ncn2CCCCN1CCOCC1 | nM | 50000 |
| COCCCCn1cnc2cc(NCc3ccc(Cl)c(Cl)c3)[nH]c(=O)c21 | nM | 190 |
| COCCCCn1c(C)nc2cc(NCc3ccc(Cl)c(Cl)c3)[nH]c(=O)c21 | nM | 1250 |
| O=c1[nH]c(NCc2ccc(Cl)c(Cl)c2)cc2ncn(CCCCN3CCOCC3)c12 | nM | 94 |
| CCc1cc(Nc2cc3ncn(CCCCCOC)c3c(=O)[nH]2)ccc1C | nM | 690 |
| CCc1cc(Nc2nc3ncn(CCCCCOC)c3c(=O)[nH]2)ccc1C | nM | 260 |
| CCc1cc(Nc2cc(=O)n(CCCCO)c(=O)[nH]2)ccc1C | nM | 63 |
| COCCCCCn1cnc2cc(NCc3ccc(Cl)c(Cl)c3)[nH]c(=O)c21 | nM | 160 |
| CCc1cc(Nc2cc3c(ncn3CCCCN3CCOCC3)c(=O)[nH]2)ccc1C | nM | 50000 |
| CCc1cc(Nc2nc(O)c3c(ncn3CCCCO)n2)ccc1C | nM | 470 |
| CCc1cc(Nc2cc3ncn(CCCCN4CCOCC4)c3c(=O)[nH]2)ccc1C | nM | 1100 |

* * *

system: Enterococcus faecium; test: Antibacterial activity against Enterococcus faecium ATCC 19434 after 16 to 24 hrs by twofold serial dilution method; assay type: functional
hey, just use fulfilled if measured MIC is less than 2 µg/mL, otherwise not fulfilled

| structure | qualitative-label |
| --- | --- |
| CCc1cc(Nc2nc(O)c3c(ncn3CCCCCO)n2)ccc1C | not fulfilled |
| CN[C@H](CC(C)C)C(=O)N[C@H]1C(=O)N[C@@H](CC(N)=O)C(=O)N[C@H]2C(=O)N[C@H]3C(=O)N[C@H](C(=O)N[C@H](C(=O)O)c4cc(O)cc(O)c4-c4cc3ccc4O)[C@H](O)c3ccc(c(Cl)c3)Oc3cc2cc(c3O[C@@H]2O[C@H](CO)[C@@H](O)[C@H](O)[C@H]2O[C@H]2C[C@](C)(N)[C@H](O)[C@H](C)O2)Oc2ccc(cc2Cl)[C@H]1O | fulfilled |
| COCCCCn1cnc2cc(NCc3ccc(Cl)c(Cl)c3)[nH]c(=O)c21 | not fulfilled |
| CCc1cc(Nc2nc3ncn(CCCCCOC)c3c(=O)[nH]2)ccc1C | not fulfilled |
| CC(=O)OCCCCCn1cnc2nc(NCc3ccc(Cl)c(Cl)c3)nc(O)c21 | fulfilled |
| CCc1cc(Nc2cc3ncn(CCCCN4CCOCC4)c3c(=O)[nH]2)ccc1C | not fulfilled |
| COCCCCCn1cnc2nc(NCc3ccc(Cl)c(Cl)c3)nc(O)c21 | not fulfilled |
| COCCCCCn1cnc2cc(NCc3ccc(Cl)c(Cl)c3)[nH]c(=O)c21 | fulfilled |

* * *

Each item that follows carries a reported MIC.
tested on: Enterococcus faecium; assay: Antibacterial activity against Enterococcus faecium ATCC 19434 after 16 to 24 hrs by twofold serial dilution method; assay type: functional

| structure | tgt | quantity-unit | MIC |
| --- | --- | --- | --- |
| O=c1[nH]c(NCc2ccc(Cl)c(Cl)c2)cc2ncn(CCCCN3CCOCC3)c12 | Enterococcus faecium | mg/L | 15 |
| O=c1[nH]c(NCc2ccc(Cl)c(Cl)c2)cc2ncn(CCCCCN3CCOCC3)c12 | Enterococcus faecium | mg/L | 20 |
| OCCCCn1cnc2nc(NCc3ccc(Cl)c(Cl)c3)nc(O)c21 | Enterococcus faecium | mg/L | 7.5 |
| CCc1cc(Nc2cc3ncn(CCCCCOC)c3c(=O)[nH]2)ccc1C | Enterococcus faecium | mg/L | 2.5 |
| O=C(O)c1cn(C2CC2)c2cc(N3CCNCC3)c(F)cc2c1=O | Enterococcus faecium | mg/L | 5 |

* * *

test system: Enterococcus faecalis; assay: Antibacterial activity against vancomycin-resistant Enterococcus faecalis after 16 to 24 hrs by twofold serial dilution method
hey, just use true (1) if measured MIC is less than 5 µg/mL, otherwise false (0)

| structure | tgt | qualitative-label |
| --- | --- | --- |
| COCCCCn1cnc2nc(NCc3ccc(Cl)c(Cl)c3)[nH]c(=O)c21 | Enterococcus faecalis | true (1) |
| O=c1[nH]c(NCc2ccc(Cl)c(Cl)c2)cc2c1ncn2CCCCN1CCOCC1 | Enterococcus faecalis | false (0) |
| CC(=O)NC[C@H]1CN(c2ccc(N3CCOCC3)c(F)c2)C(=O)O1 | Enterococcus faecalis | true (1) |
| COCCCCCn1cnc2nc(NCc3ccc(Cl)c(Cl)c3)nc(O)c21 | Enterococcus faecalis | true (1) |
| COCCCCn1cnc2cc(NCc3ccc(Cl)c(Cl)c3)[nH]c(=O)c21 | Enterococcus faecalis | true (1) |
| CCc1cc(Nc2cc3ncn(CCCCCOC)c3c(=O)[nH]2)ccc1C | Enterococcus faecalis | false (0) |
| CCc1cc(Nc2cc3ncn(CCCCOC)c3c(=O)[nH]2)ccc1C | Enterococcus faecalis | false (0) |
| CCc1cc(Nc2nc(O)c3ncn(CCCCO)c3n2)ccc1C | Enterococcus faecalis | false (0) |
| CCc1cc(Nc2cc3ncn(CCCCN4CCOCC4)c3c(=O)[nH]2)ccc1C | Enterococcus faecalis | false (0) |
| O=c1[nH]c(NCc2ccc(Cl)c(Cl)c2)cc2ncn(CCCCCN3CCOCC3)c12 | Enterococcus faecalis | false (0) |
| CCc1cc(Nc2cc3c(ncn3CCCCOC)c(=O)[nH]2)ccc1C | Enterococcus faecalis | false (0) |
| COCCCCn1c(C)nc2cc(NCc3ccc(Cl)c(Cl)c3)[nH]c(=O)c21 | Enterococcus faecalis | false (0) |
| O=c1[nH]c(NCc2ccc(Cl)c(Cl)c2)cc2ncn(CCCCN3CCOCC3)c12 | Enterococcus faecalis | false (0) |
| CCc1cc(Nc2cc3c(ncn3CCCCN3CCOCC3)c(=O)[nH]2)ccc1C | Enterococcus faecalis | false (0) |
| OCCCCn1cnc2nc(NCc3ccc(Cl)c(Cl)c3)nc(O)c21 | Enterococcus faecalis | true (1) |
| CCc1cc(Nc2nc(O)c3c(ncn3CCCCO)n2)ccc1C | Enterococcus faecalis | false (0) |
| CN[C@H](CC(C)C)C(=O)N[C@H]1C(=O)N[C@@H](CC(N)=O)C(=O)N[C@H]2C(=O)N[C@H]3C(=O)N[C@H](C(=O)N[C@H](C(=O)O)c4cc(O)cc(O)c4-c4cc3ccc4O)[C@H](O)c3ccc(c(Cl)c3)Oc3cc2cc(c3O[C@@H]2O[C@H](CO)[C@@H](O)[C@H](O)[C@H]2O[C@H]2C[C@](C)(N)[C@H](O)[C@H](C)O2)Oc2ccc(cc2Cl)[C@H]1O | Enterococcus faecalis | false (0) |

* * *

tested on: Staphylococcus aureus; assay: Antibacterial activity against methicillin-resistant Staphylococcus aureus ATCC 1094 after 16 to 24 hrs by twofold serial dilution method; type: functional
Each item that follows carries a reported MIC.

| structure | censor-symbol | MIC / µg/mL |
| --- | --- | --- |
| O=c1[nH]c(NCc2ccc(Cl)c(Cl)c2)cc2ncn(CCCCCN3CCOCC3)c12 | = | 20 |
| COCCCCn1cnc2c(=O)[nH]c(NCc3ccc(Cl)c(Cl)c3)nc21 | > | 80 |
| CN[C@H](CC(C)C)C(=O)N[C@H]1C(=O)N[C@@H](CC(N)=O)C(=O)N[C@H]2C(=O)N[C@H]3C(=O)N[C@H](C(=O)N[C@H](C(=O)O)c4cc(O)cc(O)c4-c4cc3ccc4O)[C@H](O)c3ccc(c(Cl)c3)Oc3cc2cc(c3O[C@@H]2O[C@H](CO)[C@@H](O)[C@H](O)[C@H]2O[C@H]2C[C@](C)(N)[C@H](O)[C@H](C)O2)Oc2ccc(cc2Cl)[C@H]1O | = | 0.625 |

* * *

system: Staphylococcus aureus; experiment: Antibacterial activity against methicillin-resistant Staphylococcus aureus ATCC 1094 after 16 to 24 hrs by twofold serial dilution method; assay type: functional
Each item that follows carries a reported MIC.
experimental-endpoint: MIC

| structure | tgt | observed-measurement |
| --- | --- | --- |
| COCCCCn1c(C)nc2cc(NCc3ccc(Cl)c(Cl)c3)[nH]c(=O)c21 | Staphylococcus aureus | 5 µg/mL |
| CCc1cc(Nc2nc(O)c3c(ncn3CCCCCO)n2)ccc1C | Staphylococcus aureus | 20 µg/mL |
| OCCCCCn1cnc2nc(NCc3ccc(Cl)c(Cl)c3)nc(O)c21 | Staphylococcus aureus | 10 µg/mL |
| O=c1[nH]c(NCc2ccc(Cl)c(Cl)c2)cc2ncn(CCCCN3CCOCC3)c12 | Staphylococcus aureus | 20 µg/mL |
| OCCCCn1cnc2nc(NCc3ccc(Cl)c(Cl)c3)nc(O)c21 | Staphylococcus aureus | 30 µg/mL |
| CCc1cc(Nc2cc3c(ncn3CCCCN3CCOCC3)c(=O)[nH]2)ccc1C | Staphylococcus aureus | > 80 µg/mL |
| O=C(O)c1cn(C2CC2)c2cc(N3CCNCC3)c(F)cc2c1=O | Staphylococcus aureus | > 20 µg/mL |
| CCc1cc(Nc2cc3c(ncn3CCCCOC)c(=O)[nH]2)ccc1C | Staphylococcus aureus | > 80 µg/mL |
| CCc1cc(Nc2cc3ncn(CCCCN4CCOCC4)c3c(=O)[nH]2)ccc1C | Staphylococcus aureus | 30 µg/mL |
| COCCCCn1cnc2cc(NCc3ccc(Cl)c(Cl)c3)[nH]c(=O)c21 | Staphylococcus aureus | 2.5 µg/mL |
| COCCCCn1c(C)nc2c(=O)[nH]c(NCc3ccc(Cl)c(Cl)c3)cc21 | Staphylococcus aureus | > 80 µg/mL |
| O=c1[nH]c(NCc2ccc(Cl)c(Cl)c2)cc2c1ncn2CCCCN1CCOCC1 | Staphylococcus aureus | > 40 µg/mL |
| Oc1nc(NCc2ccc(Cl)c(Cl)c2)nc2ncn(CCCCN3CCOCC3)c12 | Staphylococcus aureus | 40 µg/mL |
| CCc1cc(Nc2nc3ncn(CCCCCOC)c3c(=O)[nH]2)ccc1C | Staphylococcus aureus | 2.5 µg/mL |
| CCc1cc(Nc2cc3ncn(CCCCCOC)c3c(=O)[nH]2)ccc1C | Staphylococcus aureus | 2.5 µg/mL |
| COCCCCCn1nnc2cc(NCc3ccc(Cl)c(Cl)c3)[nH]c(=O)c21 | Staphylococcus aureus | 7.5 µg/mL |
| CCc1cc(Nc2nc(O)c3ncn(CCCCO)c3n2)ccc1C | Staphylococcus aureus | > 80 µg/mL |
| COCCCCCn1cnc2cc(NCc3ccc(Cl)c(Cl)c3)[nH]c(=O)c21 | Staphylococcus aureus | 2.5 µg/mL |
| CC(=O)OCCCCCn1cnc2nc(NCc3ccc(Cl)c(Cl)c3)nc(O)c21 | Staphylococcus aureus | 1.25 µg/mL |
| CCc1cc(Nc2nc(O)c3c(ncn3CCCCO)n2)ccc1C | Staphylococcus aureus | 30 µg/mL |
| COCCCCCn1cnc2nc(NCc3ccc(Cl)c(Cl)c3)nc(O)c21 | Staphylococcus aureus | 1.25 µg/mL |
| COCCCCn1cnc2nc(NCc3ccc(Cl)c(Cl)c3)[nH]c(=O)c21 | Staphylococcus aureus | 1.25 µg/mL |
